target: T1, r murine EphA4 (mouse, UniProt Q03137); assay: activity ELISA, Fab on coated antigen
T1 construct: recombinant Fc fusion (R&D Systems); also called rmuEphA4-Fc; mEphA4
T1 sequence (Q03137 20-547 limits assumed): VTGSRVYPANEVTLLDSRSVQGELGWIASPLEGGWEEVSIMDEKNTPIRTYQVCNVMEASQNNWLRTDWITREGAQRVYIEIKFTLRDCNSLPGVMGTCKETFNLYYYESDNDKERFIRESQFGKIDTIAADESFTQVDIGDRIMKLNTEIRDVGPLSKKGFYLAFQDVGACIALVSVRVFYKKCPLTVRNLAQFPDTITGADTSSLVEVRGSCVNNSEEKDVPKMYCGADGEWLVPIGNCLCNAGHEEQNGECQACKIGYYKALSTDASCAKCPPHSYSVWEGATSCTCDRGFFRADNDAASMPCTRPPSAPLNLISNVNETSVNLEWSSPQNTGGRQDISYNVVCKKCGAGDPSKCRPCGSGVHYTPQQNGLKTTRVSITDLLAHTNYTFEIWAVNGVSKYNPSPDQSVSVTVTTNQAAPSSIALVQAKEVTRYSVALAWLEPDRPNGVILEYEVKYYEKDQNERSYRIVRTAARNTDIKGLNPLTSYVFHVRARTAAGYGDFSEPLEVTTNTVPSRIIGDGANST
VALUE_TYPE: binding result

-- ask Return binding result for the following binder: 6B7 Fab (affinity optimized combinatorial variant of Fab20) (Fab, V domains shown) VH: QVQLLQSGAEVKKPGASVKVPCKASGYTFTSRAMSWVRQAPGQGLEWMGWINTNTGNPTYAQGFTGRFVFSLDTSVSTAYLQISSLKAEDTAVYYCARVRFTVYGDGMDVWGQGTLVTVSS VL: EIVLTQSPATLSVSPGERATLSCRASQSVSSNPAWYQQKPGQAPRLLIYGASTRATGIPDRFSASGSGTDFTLTISRVEPEDFAVYYCQQYGPSWTFGQGTKVEIK
-- reply binds

-- ask Return binding result for the following binder: 1G11 Fab (affinity optimized combinatorial variant of Fab20) (Fab, V domains shown) VH: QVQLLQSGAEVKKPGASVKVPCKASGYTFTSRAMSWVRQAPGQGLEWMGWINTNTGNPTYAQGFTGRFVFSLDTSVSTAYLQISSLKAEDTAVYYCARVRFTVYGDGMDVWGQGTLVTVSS VL: EIVLTQSPATLSVSPGERATLSCRASQSVSSNLPWYQQKPGQAPRLLIYGASTRPTGIPDRFSASGSGTDFTLTISRVEPEDFAVYYCQQYGPSWTFGQGTKVEIK
-- reply binds

-- ask Return binding result for the following binder: 1B10 Fab (affinity optimized combinatorial variant of Fab20) (Fab, V domains shown) VH: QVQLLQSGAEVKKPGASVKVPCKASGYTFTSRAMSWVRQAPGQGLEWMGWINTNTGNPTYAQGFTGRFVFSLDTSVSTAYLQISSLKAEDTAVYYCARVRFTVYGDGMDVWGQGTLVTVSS VL: EIVLTQSPATLSVSPGERATLSCRASQSVSSNPAWYQQKPGQAPRLLIYGASTWATGIPDRFSASGSGTDFTLTISRVEPEDFAVYYCQQYGPSWTFGQGTKVEIK
-- reply binds
